B1: FERM and PDZ domain-containing protein 4, residues 75 to 154; numbered along this chain, Q14CM0 (parent)
chain: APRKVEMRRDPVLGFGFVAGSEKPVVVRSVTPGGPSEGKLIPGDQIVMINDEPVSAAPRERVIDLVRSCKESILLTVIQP

Variants of: B1
Assay: abundance fitness (aPCA) (normalised: wild type 0, dead -1); higher = more abundant; growth selection in yeast, the domain comes from the species named
Details: Homo sapiens
The label depends only on abundance fitness: Satisfied if it is at least -0.05, Not satisfied if it is smaller.

As a guide, the following entries are already answered.
mutant_designation: P80L
class_label: Not satisfied
//
mutant_designation: P53G
class_label: Not satisfied
//
mutant_designation: E37K
class_label: Not satisfied
//
mutant_designation: E37Q
class_label: Satisfied
//
mutant_designation: S21H
class_label: Satisfied

Decide: is the reported value of abundance fitness for T76M equal to or greater than -0.05?
Not satisfied

Query P42R next
Not satisfied

Query G14Y next
Not satisfied

Query C69L next
Not satisfied

Query R67G next
Satisfied

Query V47N next
Not satisfied

Query R67Q next
Satisfied

Query R28M next
Not satisfied

Query G34A next
Not satisfied

Query S29R next
Not satisfied
